# testSystem: Factor X (FX), P00742
# Sequence (P00742 whole entry, looked up): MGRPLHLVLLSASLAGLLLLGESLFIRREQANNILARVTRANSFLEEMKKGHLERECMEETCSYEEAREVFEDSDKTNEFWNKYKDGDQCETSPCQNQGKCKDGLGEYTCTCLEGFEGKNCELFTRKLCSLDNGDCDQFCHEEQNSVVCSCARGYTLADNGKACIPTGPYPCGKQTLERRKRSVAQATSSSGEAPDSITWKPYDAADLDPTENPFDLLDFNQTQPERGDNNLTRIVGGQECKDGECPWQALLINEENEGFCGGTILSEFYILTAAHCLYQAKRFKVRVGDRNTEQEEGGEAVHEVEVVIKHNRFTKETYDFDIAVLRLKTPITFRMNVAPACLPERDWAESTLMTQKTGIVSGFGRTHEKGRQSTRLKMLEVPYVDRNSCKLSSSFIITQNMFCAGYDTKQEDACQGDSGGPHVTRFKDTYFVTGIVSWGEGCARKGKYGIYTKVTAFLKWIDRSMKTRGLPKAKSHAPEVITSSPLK
Consider the following proteins; for each one, report its KM.

>>> reportedmeasurement("FIXa-K247N/N249S/R338E/T343R/R403E/E410N (protein) chain 1: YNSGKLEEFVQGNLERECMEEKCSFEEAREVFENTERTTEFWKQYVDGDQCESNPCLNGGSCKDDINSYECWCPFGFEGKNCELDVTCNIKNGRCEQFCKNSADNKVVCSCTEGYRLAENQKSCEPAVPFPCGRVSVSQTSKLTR chain 2: VVGGEDAKPGQFPWQVVLNGKVDAFCGGSIVNEKWIVTAAHCVETGVKITVVAGEHNIEETEHTEQNRSVIRIIPHHNYNAAINKYNHDIALLELDEPLVLNSYVTPICIADKEYTNIFLKFGSGYVSGWGRVFHKGRSALVLQYLRVPLVDRATCLESTKFRIYNNMFCAGFHEGGRDSCQGDSGGPHVTEVEGTSFLTGIISWGEECAMKGKYGIYTKVSEYVNWIKNKTKLT")
"0.0251 µM"

Which KM reading was recorded for the protein FIXa-Y155F/K247N/N249S/R338E/T343R (protein) chain 1: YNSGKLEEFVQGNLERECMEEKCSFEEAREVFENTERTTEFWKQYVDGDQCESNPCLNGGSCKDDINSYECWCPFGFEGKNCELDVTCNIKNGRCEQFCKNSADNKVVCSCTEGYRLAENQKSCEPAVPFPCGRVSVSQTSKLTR chain 2: VVGGEDAKPGQFPWQVVLNGKVDAFCGGSIVNEKWIVTAAHCVETGVKITVVAGEHNIEETEHTEQNRSVIRIIPHHNYNAAINKYNHDIALLELDEPLVLNSYVTPICIADKEYTNIFLKFGSGYVSGWGRVFHKGRSALVLQYLRVPLVDRATCLESTKFRIYNNMFCAGFHEGGRDSCQGDSGGPHVTEVEGTSFLTGIISWGEECAMKGKYGIYTKVSRYVNWIKEKTKLT ?
0.0153 µM
